assayText: physchem
conditions: FeSSIF pH 5 + 1% PVPVA, pH 5, aqueous with cosolvent or surfactant or cyclodextrin, thermodynamic from solid
resultType: solubility kinetic at 30 min (µg/mL)
Answer format: numeric, µg/mL implied, no suffix.

q: Please indicate solubility kinetic at 30 min recorded for FC(F)(F)Oc1ccc(Nc2ccc3cccc(Cl)c3n2)cc1 [ABX464 crystalline Form I]
a: 153

----------
assayText: physchem
conditions: FeSSIF pH 5 + 1% PVPVA, pH 5, aqueous with cosolvent or surfactant or cyclodextrin, thermodynamic from solid
resultType: solubility kinetic at 5 min
Record the result as number plus unit.

q: Complete the entry with solubility kinetic at 5 min for FC(F)(F)Oc1ccc(Nc2ccc3cccc(Cl)c3n2)cc1 [ABX464 crystalline Form I]
a: 54 µg/mL

----------
assayText: Two-steps Dissolution/Precipitation in vitro Human Fasted model (gastric then intestinal compartment)
Assay type: physicochemical
conditions: 37 °C, pH 1.2, fassgf or other biorelevant, thermodynamic from solid, gastric compartment, vial G 30 min; FaSSGF pH 1.2 + 1% PVPVA; 37° C.; target about 4 mg/ml; read-out: Soluble fraction
Procedure: Samples were analysed by HPLC-UV according to the following method: • Instrument: Agilent 1200 and 1100 with PDA detector • Column: Waters XTerra MS C18 3.5 μm 4.6×50 mm • Flow rate: 1.5 ml/min • UV detection: 220 nm, 270 nm, 290 nm • Column temperature: 40° C. • Injection volume: 1 μl • Mobile phase: gradient with solutions A and B prepared according to the following: • Eluent A: Ultrapurified water adjusted to pH2 with orthophosphoric acid 85% • Eluent B: Acetonitrile […]
resultType: solubility at 30 min (µg/mL)
Hi! Could you send only the number? It should be in µg/mL, unit omitted.

q: Let me know recorded solubility at 30 min for FC(F)(F)Oc1ccc(Nc2ccc3cccc(Cl)c3n2)cc1 [ABX464 crystalline Form I] , thanks.
a: 70

----------
assayText: Two-steps Dissolution/Precipitation in vitro Human Fasted model (gastric then intestinal compartment)
Assay type: physicochemical
conditions: 37 °C, pH 6.5, fassif, thermodynamic from solid, intestinal compartment, vial I 120 min (150 min total); FaSSIF x2 pH 6.5/sodium bicarbonate 90/10 added; 37° C.; target about 2 mg/ml; read-out: Soluble fraction
resultType: solubility at 120 min (µg/mL)
Kindly answer with a numeric value in µg/mL, unit omitted.

q: Find the measured solubility at 120 min of FC(F)(F)Oc1ccc(Nc2ccc3cccc(Cl)c3n2)cc1 [ABX464 crystalline Form I] and report it.
a: 80

----------
assayText: Two-steps Dissolution/Precipitation in vitro Human Fasted model (gastric then intestinal compartment)
Type: physicochemical
conditions: 37 °C, pH 6.5, fassif, thermodynamic from solid, intestinal compartment, vial I 60 min (90 min total); FaSSIF x2 pH 6.5/sodium bicarbonate 90/10 added; 37° C.; target about 2 mg/ml; read-out: Soluble fraction
resultType: solubility at 60 min (µg/mL)
Report the figure in µg/mL without appending any unit label.

q: Quote solubility at 60 min reported for FC(F)(F)Oc1ccc(Nc2ccc3cccc(Cl)c3n2)cc1 [ABX464 crystalline Form I] please.
a: 70

----------
assayText: physchem
conditions: FeSSIF pH 5 + 1% PVPVA, pH 5, aqueous with cosolvent or surfactant or cyclodextrin, thermodynamic from solid
resultType: solubility kinetic at 2 h (µg/mL)
Report as a plain number; the unit µg/mL is understood.

q: Specify reported solubility kinetic at 2 h for the molecule shown: FC(F)(F)Oc1ccc(Nc2ccc3cccc(Cl)c3n2)cc1 [ABX464 crystalline Form I]
a: 297
